- experimentDescription: Pharmacokinetic study
- Format: in vivo, Sprague-Dawley rats
- particulars: female, Sprague-Dawley, rat, plasma, iv, 2 mg/kg, i.v. (2 mg/kg), read-out: time of peak plasma concentration (converted)
experimentalEndpoint: Tmax (min)
# value in min; strip the unit string

Give Tmax for the following molecule: CCOC1c2c(ccc3c2OCO3)-c2ccc3cc4c(cc3c2N1C)OCO4 (stereo not shown)
1.98

###

- experimentDescription: Pharmacokinetic study
- Format: in vivo, Sprague-Dawley rats
- particulars: female, Sprague-Dawley, plasma, po; i.g. (15 mg/kg), rat; read-out: MRT0-t
- Procedure: Eleven Sprague–Dawley rats (220–250 g, female) were bought from Hunan SJA Laboratory Animal Co., Ltd. (Changsha, China), and maintained and monitored in a specific pathogen-free environment. They were fasted overnight before the experiments. All rat studies were conducted according to protocols approved by the Animal Ethics Committee of Hubei University of Medicine. […] The plasma concentrations of Eth were determined by nuclear magnetic resonance analysis (Figure S1). […]
experimentalEndpoint: MRT last

Please supply the value of reported MRT last for the item CCOC1c2c(ccc3c2OCO3)-c2ccc3cc4c(cc3c2N1C)OCO4 (stereo not shown) [Eth, Ethoxysanguinarine]
7.03 h
